Assay: Dynamic solubility
Assay type: physicochemical
Conditions: thermodynamic from solid; FaSSIF, 37° C., 24 hours

>  <molecule>
Cn1c(=O)oc2ccc(-c3ccc(C[C@@H](C#N)NC(=O)[C@@H]4CNCCCO4)c(F)c3)cc21 [Compound I]

>  <unit-string>
µg/mL

>  <solubility at 24 h>
290

$$$$

----------
Assay: Dynamic solubility
Type: physicochemical
Conditions: thermodynamic from solid; FeSSIF, 37° C., 2 hours
property-name: solubility at 2 h (µg/mL)

>  <molecule>
Cn1c(=O)oc2ccc(-c3ccc(C[C@@H](C#N)NC(=O)[C@@H]4CNCCCO4)c(F)c3)cc21 [Compound I]

>  <unit-string>
µg/mL

>  <quantitative-result>
2700

$$$$

----------
Assay: Dynamic solubility
Assay type: physicochemical
Settings: simulated gastric fluid, thermodynamic from solid; SGF, 37° C., 4 hours

>  <smiles-repr>
Cn1c(=O)oc2ccc(-c3ccc(C[C@@H](C#N)NC(=O)[C@@H]4CNCCCO4)c(F)c3)cc21

>  <solubility at 4 h>
> 5300 µg/mL

$$$$

----------
Test: Dynamic solubility
Assay type: physicochemical
Details: simulated gastric fluid, thermodynamic from solid; SGF, 37° C., 24 hours

>  <smiles-repr>
Cn1c(=O)oc2ccc(-c3ccc(C[C@@H](C#N)NC(=O)[C@@H]4CNCCCO4)c(F)c3)cc21

>  <solubility at 24 h>
> 5200 µg/mL

$$$$

----------
Assay: Dynamic solubility
Assay type: physicochemical
Conditions: thermodynamic from solid; FeSSIF, 37° C., 1 hour
property-name: solubility at 1 h (µg/mL)

>  <smiles-repr>
Cn1c(=O)oc2ccc(-c3ccc(C[C@@H](C#N)NC(=O)[C@@H]4CNCCCO4)c(F)c3)cc21

>  <property-name>
solubility at 1 h

>  <unit-string>
µg/mL

>  <quantitative-result>
2700

$$$$

----------
Assay: Dynamic solubility
Type: physicochemical
Conditions: thermodynamic from solid; FaSSIF, 37° C., 1 hour

>  <compound>
Cn1c(=O)oc2ccc(-c3ccc(C[C@@H](C#N)NC(=O)[C@@H]4CNCCCO4)c(F)c3)cc21 [Compound I]

>  <solubility at 1 h>
370 µg/mL

$$$$

----------
Experiment: Dynamic solubility
Assay type: physicochemical
Settings: thermodynamic from solid; FaSSIF, 37° C., 2 hours

>  <smiles-repr>
Cn1c(=O)oc2ccc(-c3ccc(C[C@@H](C#N)NC(=O)[C@@H]4CNCCCO4)c(F)c3)cc21

>  <solubility at 2 h [µg/mL]>
360

$$$$

----------
Experiment: Dynamic solubility
Type: physicochemical
Details: simulated gastric fluid, thermodynamic from solid; SGF, 37° C., 1 hour

>  <molecule>
Cn1c(=O)oc2ccc(-c3ccc(C[C@@H](C#N)NC(=O)[C@@H]4CNCCCO4)c(F)c3)cc21 [Compound I]

>  <solubility at 1 h>
> 5200 µg/mL

$$$$

----------
Assay: Dynamic solubility
Type: physicochemical
Conditions: water, thermodynamic from solid; H2O, 37° C., 4 hours

>  <smiles-repr>
Cn1c(=O)oc2ccc(-c3ccc(C[C@@H](C#N)NC(=O)[C@@H]4CNCCCO4)c(F)c3)cc21

>  <unit-string>
µg/mL

>  <solubility at 4 h>
16

$$$$

----------
Test: Dynamic solubility
Type: physicochemical
Conditions: water, thermodynamic from solid; H2O, 37° C., 2 hours

>  <molecule>
Cn1c(=O)oc2ccc(-c3ccc(C[C@@H](C#N)NC(=O)[C@@H]4CNCCCO4)c(F)c3)cc21 [Compound I]

>  <solubility at 2 h (µg/mL)>
30

$$$$

----------
Assay: Dynamic solubility
Type: physicochemical
Settings: thermodynamic from solid; FaSSIF, 37° C., 4 hours
Method: A sample of about 0.9 mL was taken, centrifuged and filtered, tested the solid by XRPD, and tested the liquid by HPLC concentration and pH.

>  <smiles-repr>
Cn1c(=O)oc2ccc(-c3ccc(C[C@@H](C#N)NC(=O)[C@@H]4CNCCCO4)c(F)c3)cc21

>  <solubility at 4 h / µg/mL>
350

$$$$

----------
Assay: Dynamic solubility
Format: physicochemical
Conditions: thermodynamic from solid; FeSSIF, 37° C., 24 hours
property-name: solubility at 24 h (µg/mL)

>  <smiles-repr>
Cn1c(=O)oc2ccc(-c3ccc(C[C@@H](C#N)NC(=O)[C@@H]4CNCCCO4)c(F)c3)cc21

>  <quantitative-result>
2300

$$$$

----------
Experiment: Dynamic solubility
Type: physicochemical
Conditions: water, thermodynamic from solid; H2O, 37° C., 24 hours
property-name: solubility at 24 h (µg/mL)

>  <molecule>
Cn1c(=O)oc2ccc(-c3ccc(C[C@@H](C#N)NC(=O)[C@@H]4CNCCCO4)c(F)c3)cc21 [Compound I]

>  <quantitative-result>
16

$$$$
